This collection of values is drawn from patent US20240239854A1.

system: F. graminearum; details: in vitro, low cationic conditions; F. graminearum
Residues, ends and D or L forms follow the SMILES beside them.
value kind: Antifungal activity relative to the wild-type GMA4C_AC control

compound: CC[C@H](C)[C@H](NC(=O)[C@H](CCCNC(=N)N)NC(=O)[C@@H](NC(=O)[C@@H](NC(=O)[C@H](Cc1ccccc1)NC(=O)[C@@H](NC(=O)[C@H](CCCNC(=N)N)NC(=O)[C@H](CCCNC(=N)N)NC(=O)[C@H](CCCNC(=N)N)NC(=O)[C@H](Cc1ccccc1)NC(=O)CNC(=O)[C@H](CCCNC(=N)N)NC(=O)[C@H](CS)NC(=O)[C@H](CCCNC(=N)N)NC(=O)CNC(=O)CN)C(C)C)C(C)C)[C@@H](C)O)C(=O)N[C@@H](CS)C(N)=O [GMA4C_V3A] (H-GGRCRGFRRRVFVTRIC-NH2; N-terminus assumed)
tgt: F. graminearum
result: equivalent
//
compound: CC[C@H](C)[C@H](NC(=O)[C@H](CCCNC(=N)N)NC(=O)[C@@H](NC(=O)[C@H](CS)NC(=O)[C@H](Cc1ccccc1)NC(=O)[C@H](CS)NC(=O)[C@H](CCCNC(=N)N)NC(=O)[C@H](CCCNC(=N)N)NC(=O)[C@H](CCCNC(=N)N)NC(=O)[C@H](Cc1ccccc1)NC(=O)CNC(=O)[C@H](CCCCN)NC(=O)[C@H](CS)NC(=O)[C@H](CCCNC(=N)N)NC(=O)CNC(=O)CN)[C@@H](C)O)C(=O)N[C@@H](CS)C(N)=O [GMA4C_V1A] (H-GGRCKGFRRRCFCTRIC-NH2; N-terminus assumed)
tgt: F. graminearum
result: equivalent
